target: BACE1 (Homo sapiens); experiment: In vitro enzymatic BACE FRET (fluorescence resonance energy transfer) assay; format: biochemical
Sequence (P56817 46-501, species assumed): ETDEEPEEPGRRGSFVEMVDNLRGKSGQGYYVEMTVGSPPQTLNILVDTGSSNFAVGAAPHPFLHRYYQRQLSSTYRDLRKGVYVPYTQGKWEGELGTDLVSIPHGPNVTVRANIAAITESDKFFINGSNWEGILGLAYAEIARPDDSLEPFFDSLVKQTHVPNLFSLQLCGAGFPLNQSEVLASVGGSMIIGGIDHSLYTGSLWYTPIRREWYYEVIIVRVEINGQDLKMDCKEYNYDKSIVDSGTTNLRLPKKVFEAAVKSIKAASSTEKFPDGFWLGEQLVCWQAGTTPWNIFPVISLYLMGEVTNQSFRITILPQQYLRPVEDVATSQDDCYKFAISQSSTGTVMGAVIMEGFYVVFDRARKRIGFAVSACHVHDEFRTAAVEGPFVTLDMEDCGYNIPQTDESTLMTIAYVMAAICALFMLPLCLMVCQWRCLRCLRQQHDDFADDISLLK
experimental readout: IC50 (nM)
Answers are plain numbers, in nM.

- compound: "C=CC[C@H](NC(=O)COC)[C@H](O)CN[C@H]1CC2(CCC2)Oc2c1cc(CC(C)(C)C)nc2N(C)C [Example 48]"
  scale unit: "nM"
  IC50: 365
- compound: "C#CCC(NC(=O)C1CCC(=O)O1)C(O)CNC1CC2(CCC2)Oc2ncc(CC(C)(C)C)cc21 (stereo not shown) [Example 37]"
  scale unit: "nM"
  IC50: 18
- compound: "C=CC[C@H](NC(=O)c1cc(F)cc(F)c1)[C@H](O)CN[C@H]1CC2(CCC2)Oc2ncc(CC(C)(C)C)cc21 [Example 61]"
  scale unit: "nM"
  IC50: 5

Kindly consider the entry below.
Q: # input compound: C=CC[C@H](NC(=O)c1ccc(OC)nc1)[C@H](O)CN[C@H]1CC2(CCC2)Oc2ncc(CC(C)(C)C)cc21 [Example 63] ; wanted: its IC50
A: 215

----------
test system: Cells stably expressing Amyloid Precursor Protein (APP); test: In vitro BACE cell-based assay (HEK cell assay): Aβ40 in conditioned medium by sandwich ELISA; details: Homo sapiens, HEK293, 24 h, Aβ40 in conditioned medium after 24 h incubation
Exercise: state measured pIC50 for each of the molecules provided.
Give bare numbers, as −log10 of the molar value.

- molecule: "C=CC[C@H](NC(=O)c1ccc(F)cc1F)[C@H](O)CN[C@H]1CC2(CCC2)Oc2ncc(CC(C)(C)C)cc21 [Example 70]"
  measured value: 6.28
- molecule: "C=CC[C@H](NC(=O)c1cc(F)ccc1F)[C@H](O)CN[C@H]1CC2(CCC2)Oc2ncc(CC(C)(C)C)cc21 [Example 71]"
  measured value: 6.00
- molecule: "C=CC[C@H](NC(=O)[C@H](C)OC)[C@H](O)CN[C@H]1CC2(CCC2)Oc2ncc(CC(C)(C)C)cc21 [Example 95]"
  measured value: 6.20
- molecule: "C=CCC(NC(=O)C1CCC(=O)O1)C(O)CNC1CC2(CC(O)C2)Oc2ncc(CC(C)(C)C)cc21 (stereo not shown) [Example 112]"
  measured value: 7.55
- molecule: "C=CC[C@H](NC(=O)COC)[C@H](O)CN[C@H]1CC2(CCC2)Oc2c1cc(CC(C)(C)C)nc2N1CCCC1 [Example 49]"
  measured value: 7.05
- molecule: "C=CC[C@H](NC(=O)C(C)(C)F)[C@H](O)CN[C@H]1CC2(CCC2)Oc2ncc(CC(C)(C)C)cc21 [Example 141]"
  measured value: 6.32

State recorded pIC50 for all listed molecules.
1. C=CC[C@H](NC(=O)c1ccc(F)c(F)c1)[C@H](O)CN[C@H]1CC2(CCC2)Oc2ncc(CC(C)(C)C)cc21 [Example 60]
2. C=CC[C@H](NC(=O)c1ccns1)[C@H](O)CN[C@H]1CC2(CCC2)Oc2ncc(CC(C)(C)C)cc21 [Example 130]
3. C=CC[C@H](NC(=O)c1c(F)ccc(F)c1F)[C@H](O)CN[C@H]1CC2(CCC2)Oc2ncc(CC(C)(C)C)cc21 [Example 75]
4. C=CC[C@H](NC(C)=O)[C@H](O)CN[C@H]1CC2(CCC2)Oc2ncc(C[C@@H](C)C(F)(F)F)cc21 [Example 125]
5. C=CC[C@H](NC(C)=O)[C@H](O)CN[C@H]1CC2(CCC2)Oc2ncc(CC(C)(F)F)cc21 [Example 120]
6. C#CC[C@H](NC(=O)COC)[C@H](O)CN[C@H]1CC2(CCC2)Oc2ncc(CC(C)(C)C)cc21 [Example 85]
7. C=CC[C@H](NC(=O)c1cccc(F)c1)[C@H](O)CN[C@H]1CC2(CCC2)Oc2ncc(CC(C)(C)C)cc21 [Example 64]
8. C=CC[C@H](NC(=O)c1cnccc1OC)[C@H](O)CN[C@H]1CC2(CCC2)Oc2ncc(CC(C)(C)C)cc21 [Example 76]

A:
6.44
6.72
6.44
6.91
7.19
6.29
5.59
6.10
